# protocol_notes: Micelles-buffer partition coefficient, log K of the compound after 30 mins at pH 7.4 by UV-vis spectrophotometric analysis
# Type: physicochemical
# conditions_used: pH 7.4, 0.5 h
observable: log K

>>> observed_result("COc1cc2oc3c(OC)c4c(cc3c(=O)c2cc1OC)CCC(C)(C)O4")
3.88
>>> observed_result("Cc1ccc2oc3c(O)c4c(cc3c(=O)c2c1)CCC(C)(C)O4")
3.92
>>> observed_result("COc1c2c(cc3c(=O)c4cc(Cl)ccc4oc13)OC(C)(C)C=C2")
4.34
>>> observed_result("COc1c2c(cc3c(=O)c4ccc(O)cc4oc13)OC(C)(C)C=C2")
3.9
>>> observed_result("CCN(CC)c1ccc2c(=O)c3cc4c(c(OC)c3oc2c1)CCC(C)(C)O4")
4.7
>>> observed_result("COc1c2c(cc3c(=O)c4ccc(O)cc4oc13)CCC(C)(C)O2")
3.49
>>> observed_result("COc1ccc2oc3c(OC)c4c(cc3c(=O)c2c1)OC(C)(C)C=C4")
4.21
>>> observed_result("CC1(C)CCc2cc3c(=O)c4ccc(O)cc4oc3c(O)c2O1")
3.76
>>> observed_result("CC1(C)CCc2cc3c(=O)c4cc(Cl)ccc4oc3c(O)c2O1")
4.39
>>> observed_result("COc1c2c(cc3c(=O)c4cc(C)ccc4oc13)OC(C)(C)C=C2")
4.29
>>> observed_result("COc1c2c(cc3c(=O)c4ccccc4oc13)CCC(C)(C)O2")
3.59
>>> observed_result("COc1ccc2oc3c(O)c4c(cc3c(=O)c2c1)CCC(C)(C)O4")
3.35
>>> observed_result("COc1c2c(cc3c(=O)c4cc(Cl)ccc4oc13)OC(C)(C)CC2")
4.41
>>> observed_result("COc1cc2oc3c(OC)c4c(cc3c(=O)c2cc1OC)OC(C)(C)CC4")
3.83
>>> observed_result("COc1c2c(cc3c(=O)c4cc(C)ccc4oc13)CCC(C)(C)O2")
4.01
>>> observed_result("COc1cccc2c(=O)c3cc4c(c(O)c3oc12)OC(C)(C)CC4")
3.58
>>> observed_result("CC1(C)CCc2cc3c(=O)c4ccccc4oc3c(O)c2O1")
3.28
